- Tested on: 282377-053-R-J1-PDC complex spheroids, viability
- Test method notes: Anticancer human tumor 282377-053-R-J1-PDC patient-derived colon adenocarcinoma cell line growth inhibition [GQUAD]
- Settings: second compound 0.0316 µM; first compound 0.316 µM; stronger effect = lower value
Measured property: viability, T/C (%)
Write the answer as a number in %, unit excluded.

Example compounds with recorded viability, T/C:
# Compound, viability, T/C / %
measured = [
    ("CC[C@@]1(O)C(=O)OCc2c1cc1n(c2=O)Cc2cc3c(CN(C)C)c(O)ccc3nc2-1 + Cc1[nH]c2ccc(F)cc2c1-c1nc2c3cccnc3c3ncccc3c2[nH]1", 49.9),
    ("O=C(NO)c1cnc(N2CCN(S(=O)(=O)c3ccc4ccccc4c3)CC2)nc1 + Cc1[nH]c2ccc(F)cc2c1-c1nc2c3cccnc3c3ncccc3c2[nH]1", 18.6),
    ("COc1cccc2c1C(=O)c1c(O)c3c(c(O)c1C2=O)CC(O)(C(=O)CO)CC3OC1CC(N)C(O)C(C)O1 (stereo unspecified) + Cc1cnc(CNC(=O)c2c(=O)c3ccc(N4CCCN(C)CC4)nc3n3c2sc2ccccc23)cn1", 83.6),
    ("C#Cc1c(F)ccc2cc(O)cc(-c3ncc4c(N5CC6CCC(C5)N6)nc(OCC56CCCN5CC(F)C6)nc4c3F)c12 (stereo unspecified) + CN(C)c1ccc(Nc2c3ccc(NC(=O)CCN4CCCC4)cc3nc3cc(NC(=O)CCN4CCCC4)ccc23)cc1", 89.1),
    ("Cc1cccc(N(C)C(=O)C2C(O)CCN2c2nc(C)cc(C(F)(F)F)c2C#N)c1 (stereo unspecified) + Cc1cnc(CNC(=O)c2c(=O)c3ccc(N4CCCN(C)CC4)nc3n3c2sc2ccccc23)cn1", 108),
    ("Cc1cccc(N(C)C(=O)C2C(O)CCN2c2nc(C)cc(C(F)(F)F)c2C#N)c1 (stereo unspecified) + Cc1[nH]c2ccc(F)cc2c1-c1nc2c3cccnc3c3ncccc3c2[nH]1", 113),
    ("COc1cccc2c1C(=O)c1c(O)c3c(c(O)c1C2=O)CC(O)(C(=O)CO)CC3OC1CC(N)C(O)C(C)O1 (stereo unspecified) + CN(C)c1ccc(Nc2c3ccc(NC(=O)CCN4CCCC4)cc3nc3cc(NC(=O)CCN4CCCC4)ccc23)cc1", 92.8),
    ("COc1ccc([C@@H](O)c2cc(-c3ncnc4cc(N5CCOCC5)ccc34)c(F)cc2Cl)nn1 + Cc1cnc(CNC(=O)c2c(=O)c3ccc(N4CCCN(C)CC4)nc3n3c2sc2ccccc23)cn1", 118),
]

So what's the measured viability, T/C for this one? CCc1c2c(nc3ccc(O)cc13)-c1cc3c(c(=O)n1C2)COC(=O)[C@]3(O)CC + Cc1cnc(CNC(=O)c2c(=O)c3ccc(N4CCCN(C)CC4)nc3n3c2sc2ccccc23)cn1
27.2

Repeat for the following compound: O=C(c1cc(Cc2n[nH]c(=O)c3ccccc23)ccc1F)N1CCN(C(=O)C2CC2)CC1 + CN(C)c1ccc(Nc2c3ccc(NC(=O)CCN4CCCC4)cc3nc3cc(NC(=O)CCN4CCCC4)ccc23)cc1
94.2

Consider next the compound O=c1[nH]cc(F)c(=O)[nH]1 + CN(C)c1ccc(Nc2c3ccc(NC(=O)CCN4CCCC4)cc3nc3cc(NC(=O)CCN4CCCC4)ccc23)cc1 in the same way.
110

----------
- Test system: 282377-053-R-J1-PDC complex spheroids, viability
- Test method notes: Anticancer human tumor 282377-053-R-J1-PDC cell line growth inhibition [GQUAD];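 note: spheroids exposed to compounds for 7 days before readout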
- Settings: curve of first compound; second compound 1 µM
Measured property: pIC50
Remember the convention: pIC50 equals -log10 of concentration in molar.

# Compound, pIC50
rows = [
    ("CCc1c2c(nc3ccc(O)cc13)-c1cc3c(c(=O)n1C2)COC(=O)[C@]3(O)CC + Cc1[nH]c2ccc(F)cc2c1-c1nc2c3cccnc3c3ncccc3c2[nH]1", 7.69),
]

Query: pIC50; subject: Nc1ccn(C2OC(CO)C(O)C2(F)F)c(=O)n1 (stereo not given) + Cc1cnc(CNC(=O)c2c(=O)c3ccc(N4CCCN(C)CC4)nc3n3c2sc2ccccc23)cn1
7.31

Same for CCCS(=O)(=O)Nc1ccc(F)c(C(=O)c2c[nH]c3ncc(-c4ccc(Cl)cc4)cc23)c1F + CN(C)c1ccc(Nc2c3ccc(NC(=O)CCN4CCCC4)cc3nc3cc(NC(=O)CCN4CCCC4)ccc23)cc1
5.41

Then O=C(NO)c1cnc(N2CCN(S(=O)(=O)c3ccc4ccccc4c3)CC2)nc1 + CN(C)c1ccc(Nc2c3ccc(NC(=O)CCN4CCCC4)cc3nc3cc(NC(=O)CCN4CCCC4)ccc23)cc1 ?
6.29

Again, but for CCCS(=O)(=O)Nc1ccc(F)c(C(=O)c2c[nH]c3ncc(-c4ccc(Cl)cc4)cc23)c1F + Cc1cnc(CNC(=O)c2c(=O)c3ccc(N4CCCN(C)CC4)nc3n3c2sc2ccccc23)cn1
7.46

Another compound: CC1COCCN1c1cc(-c2ccnn2C)c2ccnc(-c3ccn[nH]3)c2n1 (stereo not given) + CN(C)c1ccc(Nc2c3ccc(NC(=O)CCN4CCCC4)cc3nc3cc(NC(=O)CCN4CCCC4)ccc23)cc1
6.25

----------
- Test system: 282377-053-R-J1-PDC complex spheroids, viability
- Test method notes: Anticancer human tumor 282377-053-R-J1-PDC cell line growth inhibition [GQUAD];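 note: spheroids exposed to compounds for 7 days before readout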;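 for viability, T/C: percent of vehicle DMSO control viability with 100% = untreated-like growth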
- Settings: second compound 10 µM; first compound 0.0316 µM; stronger effect = lower value
Field: label. Allowed values: rule met (viability, T/C < 40%) or rule not met (viability, T/C >= 40%).

Examples with answers:
# Compound, Group label
measured = [
    ("O=C(c1cc(Cc2n[nH]c(=O)c3ccccc23)ccc1F)N1CCN(C(=O)C2CC2)CC1 + Cc1[nH]c2ccc(F)cc2c1-c1nc2c3cccnc3c3ncccc3c2[nH]1", "rule not met"),
    ("O=C(NO)c1cnc(N2CCN(S(=O)(=O)c3ccc4ccccc4c3)CC2)nc1 + Cc1cnc(CNC(=O)c2c(=O)c3ccc(N4CCCN(C)CC4)nc3n3c2sc2ccccc23)cn1", "rule met"),
    ("CC1COCCN1c1cc(C2(O)CC3CCC(C2)O3)c2cnn(-c3ccn[nH]3)c2n1 (stereo not given) + Cc1cnc(CNC(=O)c2c(=O)c3ccc(N4CCCN(C)CC4)nc3n3c2sc2ccccc23)cn1", "rule met"),
    ("O=c1[nH]cc(F)c(=O)[nH]1 + Cc1cnc(CNC(=O)c2c(=O)c3ccc(N4CCCN(C)CC4)nc3n3c2sc2ccccc23)cn1", "rule not met"),
]

Item COc1cc(C2c3cc4c(cc3C(OC3OC5COC(C)OC5C(O)C3O)C3COC(=O)C23)OCO4)cc(OC)c1O (stereo not given) + Cc1cnc(CNC(=O)c2c(=O)c3ccc(N4CCCN(C)CC4)nc3n3c2sc2ccccc23)cn1 : viability, T/C beneath 40%, strictly?
rule not met

----------
- Test system: 282377-053-R-J1-PDC complex spheroids, viability
- Test method notes: Anticancer human tumor 282377-053-R-J1-PDC cell line growth inhibition [GQUAD];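 note: spheroids exposed to compounds for 7 days before readout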;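 for viability, T/C: percent of vehicle DMSO control viability with 100% = untreated-like growth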
- Settings: second compound 0.316 µM; first compound 0.0316 µM; stronger effect = lower value
Measured property: viability, T/C (%)
Lab book: enter the figure in %, no units written.

# Compound, Assay target, viability, T/C [%]
measured = [
    ("Cc1cccc(N(C)C(=O)C2C(O)CCN2c2nc(C)cc(C(F)(F)F)c2C#N)c1 (stereo not given) + CN(C)c1ccc(Nc2c3ccc(NC(=O)CCN4CCCC4)cc3nc3cc(NC(=O)CCN4CCCC4)ccc23)cc1", "282377-053-R-J1-PDC complex spheroids, viability", 101),
    ("COc1cc(C2c3cc4c(cc3C(OC3OC5COC(C)OC5C(O)C3O)C3COC(=O)C23)OCO4)cc(OC)c1O (stereo not given) + Cc1cnc(CNC(=O)c2c(=O)c3ccc(N4CCCN(C)CC4)nc3n3c2sc2ccccc23)cn1", "282377-053-R-J1-PDC complex spheroids, viability", 103),
    ("C=CCn1c(=O)c2cnc(Nc3ccc(N4CCN(C)CC4)cc3)nc2n1-c1cccc(C(C)(C)O)n1 + Cc1cnc(CNC(=O)c2c(=O)c3ccc(N4CCCN(C)CC4)nc3n3c2sc2ccccc23)cn1", "282377-053-R-J1-PDC complex spheroids, viability", 102),
    ("Cc1[nH]c2ccccc2c1CCNCc1ccc(/C=C/C(=O)NO)cc1 + CN(C)c1ccc(Nc2c3ccc(NC(=O)CCN4CCCC4)cc3nc3cc(NC(=O)CCN4CCCC4)ccc23)cc1", "282377-053-R-J1-PDC complex spheroids, viability", 116),
]

The record that follows has no viability, T/C shown yet.
GET /values?readout=viability, T/C&item= COc1cc(C2c3cc4c(cc3C(OC3OC5COC(C)OC5C(O)C3O)C3COC(=O)C23)OCO4)cc(OC)c1O (stereo not given) + CN(C)c1ccc(Nc2c3ccc(NC(=O)CCN4CCCC4)cc3nc3cc(NC(=O)CCN4CCCC4)ccc23)cc1
108
